# Tested on: HIV-1 RF
# Measurement notes: Antiviral assay, Experimental Protocol I (compound added after infection)
# Type: cell-based
# Test context: Human immunodeficiency virus 1, 240 h, 10% FCS, 5 μg/ml, p24 ELISA, read-out: % Inhibition (after day 10)
Measured parameter: inhibition at 5 µg/mL (%)
Only the number, expressed in %, is required.

Compound	Reported value
CCOc1cc(N=Nc2c(S(=O)(=O)O)cc3cc(S(=O)(=O)O)cc(NC(=O)c4cccc(Cl)c4Cl)c3c2O)c(OCC)cc1N=Nc1c(S(=O)(=O)O)cc2cc(S(=O)(=O)O)cc(NC(=O)c3ccc(Cl)cc3Cl)c2c1O	100

compound CCC(C)(C)c1ccc(OCC(=O)Nc2cc(S(=O)(=O)O)cc3cc(S(=O)(=O)O)c(N=Nc4cc(OC)c(N=Nc5c(S(=O)(=O)O)cc6cc(S(=O)(=O)O)cc(NC(C)=O)c6c5O)cc4OC)c(O)c23)c(C(C)(C)CC)c1 , inhibition at 5 µg/mL observed: 100

The compound identified as COc1cc(N=Nc2c(S(=O)(=O)O)cc3cc(S(=O)(=O)O)cc(NC(=O)c4cccc(Cl)c4Cl)c3c2O)c(OC)cc1N=Nc1c(S(=O)(=O)O)cc2cc(S(=O)(=O)O)cc(NC(=O)c3ccc(Cl)cc3Cl)c2c1O registered its inhibition at 5 µg/mL at 100
